Attribute: kcat
Substrate: O=[N+]([O-])c1ccc2c(c1)OCO2
Assay: purified protein
Type: biochemical, Cyclocybe aegerita
Details: H2O2 1 mM, potassium phosphate 50 mM pH 7.0, 20% v/v acetonitrile
State the answer as a number, implicitly in s⁻¹.

Before answering, review these 4 worked examples.
| Protein | Unit annotation | kcat |
| --- | --- | --- |
| PaDa-I (AaeUPO variant) (Cyclocybe aegerita; F234A/F354L/I291V/L110F/V100A/V118I) (protein, laboratory-evolved secreted variant; plasmid pJRoC30-PaDa-I in Saccharomyces cerevisiae BJ5465, purified; only F311L given; recalled mature changes V57A/L67F/V75I/I248V/F311L (plus signal peptide F12Y/A14V/R15G/A21D); heme-thiolate, N-glycosylated) EPGLPPGPLENSSAKLVNDEAHPWKPLRPGDIRGPCPGLNTLASHGYLPRNGVATPAQIINAVQEGFNFDNQAAIFATYAAHLVDGNLITDLLSIGRKTRLTGPDPPPPASVGGLNEHGTFEGDASMTRGDAFFGNNHDFNETLFEQLVDYSNRFGGGKYNLTVAGELRFKRIQDSIATNPNFSFVDFRFATAYGETTFPANLFVDGRRDDGQLDMDAARSFFQFSRMPDDFFRAPSPRSGTGVEVVVQAHPMQPGRNVGKINSYTVDPTSSDFSTPCLMYEKFVNITVKSLYPNPTVQLRKALNTNLDFLFQGVAAGCTQVFPYGRD | s⁻¹ | 279 |
| PaDa-I (AaeUPO variant) (Cyclocybe aegerita; F119L/F354L/I291V/L110F/V100A/V118I) (protein, laboratory-evolved secreted variant; plasmid pJRoC30-PaDa-I in Saccharomyces cerevisiae BJ5465, purified; only F311L given; recalled mature changes V57A/L67F/V75I/I248V/F311L (plus signal peptide F12Y/A14V/R15G/A21D); heme-thiolate, N-glycosylated) EPGLPPGPLENSSAKLVNDEAHPWKPLRPGDIRGPCPGLNTLASHGYLPRNGVATPAQIINAVQEGFNFDNQAAILATYAAHLVDGNLITDLLSIGRKTRLTGPDPPPPASVGGLNEHGTFEGDASMTRGDAFFGNNHDFNETLFEQLVDYSNRFGGGKYNLTVAGELRFKRIQDSIATNPNFSFVDFRFFTAYGETTFPANLFVDGRRDDGQLDMDAARSFFQFSRMPDDFFRAPSPRSGTGVEVVVQAHPMQPGRNVGKINSYTVDPTSSDFSTPCLMYEKFVNITVKSLYPNPTVQLRKALNTNLDFLFQGVAAGCTQVFPYGRD | s⁻¹ | 454 |
| PaDa-I (AaeUPO variant) (Cyclocybe aegerita; F119A/F354L/I291V/L110F/V100A/V118I) (protein, laboratory-evolved secreted variant; plasmid pJRoC30-PaDa-I in Saccharomyces cerevisiae BJ5465, purified; only F311L given; recalled mature changes V57A/L67F/V75I/I248V/F311L (plus signal peptide F12Y/A14V/R15G/A21D); heme-thiolate, N-glycosylated) EPGLPPGPLENSSAKLVNDEAHPWKPLRPGDIRGPCPGLNTLASHGYLPRNGVATPAQIINAVQEGFNFDNQAAIAATYAAHLVDGNLITDLLSIGRKTRLTGPDPPPPASVGGLNEHGTFEGDASMTRGDAFFGNNHDFNETLFEQLVDYSNRFGGGKYNLTVAGELRFKRIQDSIATNPNFSFVDFRFFTAYGETTFPANLFVDGRRDDGQLDMDAARSFFQFSRMPDDFFRAPSPRSGTGVEVVVQAHPMQPGRNVGKINSYTVDPTSSDFSTPCLMYEKFVNITVKSLYPNPTVQLRKALNTNLDFLFQGVAAGCTQVFPYGRD | s⁻¹ | 356 |
| PaDa-I (AaeUPO variant) (Cyclocybe aegerita; F119A/F234A/F354L/I291V/L110F/V100A/V118I) (protein, laboratory-evolved secreted variant; plasmid pJRoC30-PaDa-I in Saccharomyces cerevisiae BJ5465, purified; only F311L given; recalled mature changes V57A/L67F/V75I/I248V/F311L (plus signal peptide F12Y/A14V/R15G/A21D); heme-thiolate, N-glycosylated) EPGLPPGPLENSSAKLVNDEAHPWKPLRPGDIRGPCPGLNTLASHGYLPRNGVATPAQIINAVQEGFNFDNQAAIAATYAAHLVDGNLITDLLSIGRKTRLTGPDPPPPASVGGLNEHGTFEGDASMTRGDAFFGNNHDFNETLFEQLVDYSNRFGGGKYNLTVAGELRFKRIQDSIATNPNFSFVDFRFATAYGETTFPANLFVDGRRDDGQLDMDAARSFFQFSRMPDDFFRAPSPRSGTGVEVVVQAHPMQPGRNVGKINSYTVDPTSSDFSTPCLMYEKFVNITVKSLYPNPTVQLRKALNTNLDFLFQGVAAGCTQVFPYGRD | s⁻¹ | 258 |

Please look at the following protein next.
Write down kcat measured for item PaDa-I (AaeUPO variant) (Cyclocybe aegerita; F119L/F234A/F354L/I291V/L110F/V100A/V118I) (protein, laboratory-evolved secreted variant; plasmid pJRoC30-PaDa-I in Saccharomyces cerevisiae BJ5465, purified; only F311L given; recalled mature changes V57A/L67F/V75I/I248V/F311L (plus signal peptide F12Y/A14V/R15G/A21D); heme-thiolate, N-glycosylated) EPGLPPGPLENSSAKLVNDEAHPWKPLRPGDIRGPCPGLNTLASHGYLPRNGVATPAQIINAVQEGFNFDNQAAILATYAAHLVDGNLITDLLSIGRKTRLTGPDPPPPASVGGLNEHGTFEGDASMTRGDAFFGNNHDFNETLFEQLVDYSNRFGGGKYNLTVAGELRFKRIQDSIATNPNFSFVDFRFATAYGETTFPANLFVDGRRDDGQLDMDAARSFFQFSRMPDDFFRAPSPRSGTGVEVVVQAHPMQPGRNVGKINSYTVDPTSSDFSTPCLMYEKFVNITVKSLYPNPTVQLRKALNTNLDFLFQGVAAGCTQVFPYGRD
332
